Every entry's value here was drawn from patent US20150246938A1.

# assay system: recombinant human ACC2 (Homo sapiens)
# Construct: a cDNA encoding human ACC2 (27-2458) was cloned from human kidney cDNA library (Clontech); His-tag (N); made in house; host or cells: Sf-9 insect cells (Bac-to-Bac baculovirus)
# Sequence (O00763 27-2458): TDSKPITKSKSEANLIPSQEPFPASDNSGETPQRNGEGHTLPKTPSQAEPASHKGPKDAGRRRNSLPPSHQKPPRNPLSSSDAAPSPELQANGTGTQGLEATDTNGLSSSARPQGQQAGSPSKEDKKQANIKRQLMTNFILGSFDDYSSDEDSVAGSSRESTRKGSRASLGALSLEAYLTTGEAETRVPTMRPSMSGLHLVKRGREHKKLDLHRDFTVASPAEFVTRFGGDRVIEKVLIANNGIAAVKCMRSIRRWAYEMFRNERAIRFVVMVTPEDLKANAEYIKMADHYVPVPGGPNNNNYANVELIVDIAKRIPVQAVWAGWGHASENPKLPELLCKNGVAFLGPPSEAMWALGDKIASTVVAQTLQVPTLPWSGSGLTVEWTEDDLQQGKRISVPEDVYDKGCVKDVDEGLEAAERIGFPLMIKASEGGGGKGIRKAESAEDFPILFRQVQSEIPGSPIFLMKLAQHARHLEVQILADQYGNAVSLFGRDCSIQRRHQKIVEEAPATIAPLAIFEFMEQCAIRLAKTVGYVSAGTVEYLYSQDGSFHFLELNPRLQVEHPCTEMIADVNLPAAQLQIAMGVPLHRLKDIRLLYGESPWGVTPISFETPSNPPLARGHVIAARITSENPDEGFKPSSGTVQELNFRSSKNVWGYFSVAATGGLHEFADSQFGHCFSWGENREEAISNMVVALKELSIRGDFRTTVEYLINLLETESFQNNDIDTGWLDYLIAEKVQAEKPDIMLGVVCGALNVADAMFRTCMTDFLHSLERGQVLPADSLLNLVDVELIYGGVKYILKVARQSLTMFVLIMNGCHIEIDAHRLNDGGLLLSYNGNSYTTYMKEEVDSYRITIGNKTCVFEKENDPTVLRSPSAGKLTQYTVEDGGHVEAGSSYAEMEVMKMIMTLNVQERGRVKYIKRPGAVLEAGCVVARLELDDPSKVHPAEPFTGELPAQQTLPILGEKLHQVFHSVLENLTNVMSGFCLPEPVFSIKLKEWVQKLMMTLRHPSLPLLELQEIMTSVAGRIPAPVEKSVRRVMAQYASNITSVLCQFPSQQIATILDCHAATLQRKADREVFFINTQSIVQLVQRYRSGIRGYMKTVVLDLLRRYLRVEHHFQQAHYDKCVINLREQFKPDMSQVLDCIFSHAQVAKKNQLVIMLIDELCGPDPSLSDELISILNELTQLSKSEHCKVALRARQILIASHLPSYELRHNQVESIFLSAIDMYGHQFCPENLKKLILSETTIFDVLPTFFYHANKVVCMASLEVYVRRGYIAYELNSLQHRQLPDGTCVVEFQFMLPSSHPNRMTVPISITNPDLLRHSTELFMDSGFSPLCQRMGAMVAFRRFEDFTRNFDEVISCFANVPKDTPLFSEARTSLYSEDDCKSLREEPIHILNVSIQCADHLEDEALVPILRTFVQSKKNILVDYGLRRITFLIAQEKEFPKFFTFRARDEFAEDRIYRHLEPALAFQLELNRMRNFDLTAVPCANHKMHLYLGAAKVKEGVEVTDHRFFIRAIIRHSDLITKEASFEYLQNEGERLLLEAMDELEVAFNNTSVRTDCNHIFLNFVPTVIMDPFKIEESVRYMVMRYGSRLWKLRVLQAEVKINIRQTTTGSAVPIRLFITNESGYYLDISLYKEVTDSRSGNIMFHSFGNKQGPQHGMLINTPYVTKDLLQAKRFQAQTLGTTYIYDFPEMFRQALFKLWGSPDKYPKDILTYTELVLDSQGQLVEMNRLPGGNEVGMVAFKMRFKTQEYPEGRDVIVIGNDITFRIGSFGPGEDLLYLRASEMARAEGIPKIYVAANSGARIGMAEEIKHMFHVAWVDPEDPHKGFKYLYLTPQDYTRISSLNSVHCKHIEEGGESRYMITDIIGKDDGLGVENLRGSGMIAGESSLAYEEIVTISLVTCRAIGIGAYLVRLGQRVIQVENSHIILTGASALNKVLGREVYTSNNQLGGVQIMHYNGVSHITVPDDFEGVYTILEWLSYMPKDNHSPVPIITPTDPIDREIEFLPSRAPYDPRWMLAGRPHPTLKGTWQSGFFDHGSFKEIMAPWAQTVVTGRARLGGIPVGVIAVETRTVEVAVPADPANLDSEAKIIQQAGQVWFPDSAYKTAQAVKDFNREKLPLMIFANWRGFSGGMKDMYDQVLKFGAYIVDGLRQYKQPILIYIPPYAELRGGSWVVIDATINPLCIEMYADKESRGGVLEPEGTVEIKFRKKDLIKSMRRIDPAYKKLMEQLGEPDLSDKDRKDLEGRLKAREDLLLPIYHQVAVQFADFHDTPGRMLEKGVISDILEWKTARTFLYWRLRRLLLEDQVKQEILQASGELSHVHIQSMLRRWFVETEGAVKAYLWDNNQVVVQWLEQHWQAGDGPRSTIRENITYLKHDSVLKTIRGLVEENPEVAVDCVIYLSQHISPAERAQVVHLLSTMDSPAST
# test summary: Measurement of inhibitory activity on human ACC2 (MALDI-TOF MS, acetyl CoA to malonyl CoA conversion)
# Type: biochemical
# test parameters: inhibition activity on human ACC2, untitled table (Table 81); read-out: IC50
readout label: IC50 (nM)

Record excerpt, results attached:
                            compound_smiles                           assay_system  assay_result
0  CC(=O)N[C@@H](C)/C=C/c1ccc(Oc2ccnc(OCC3CC3)c2)nc1  recombinant human ACC2 (Homo sapiens)            87
1  CCCc1ccc(Oc2ccc(/C=C/[C@H](C)NC(C)=O)cn2)cc1Cl  recombinant human ACC2 (Homo sapiens)            11
2  CC(=O)N[C@@H](C)/C=C/c1ccc(Oc2ccc(NC(=O)CCCCl)cc2Cl)nc1  recombinant human ACC2 (Homo sapiens)            50

(P) CCCc1ccc(Oc2ccc(/C=C/[C@H](C)NC(C)=O)cn2)cc1
(Q) COc1cc(Oc2ccc(/C=C/[C@H](C)NC(C)=O)cn2)ccc1F
(R) CC(=O)N[C@@H](C)/C=C/c1cnn(Cc2c(F)cc(OCC3CC3)cc2F)c1
(S) CC(=O)N[C@@H](C)/C=C/c1cnn(Cc2cc(F)c(OCC3CC3)c(Cl)c2)c1
(T) CCCc1ccc(Oc2ccc(/C=C/[C@H](C)NC(C)=O)cn2)cn1
# input Would you mind ranking these molecules by ascending IC50? Write the labels, ordered according to the request.
# output P, T, Q, S, R
(P: 24 nM, T: 120 nM, Q: 400 nM, S: 1100 nM, R: 3000 nM)

====

# assay system: recombinant human ACC2 (Homo sapiens)
# Construct: a cDNA encoding human ACC2 (27-2458) was cloned from human kidney cDNA library (Clontech); His-tag (N); made in house; host or cells: Sf-9 insect cells (Bac-to-Bac baculovirus)
# test summary: Measurement of inhibitory activity on human ACC2 (MALDI-TOF MS, acetyl CoA to malonyl CoA conversion)
# Format: biochemical
# test parameters: inhibition activity on human ACC2, Table 79; read-out: IC50
readout label: IC50 (nM)

Record excerpt, results attached:
                                   compound  value_units  assay_result
0  CC(=O)N[C@@H](C)/C=C/c1cnc(Oc2ccc(NC(=O)OC(C)(C)C)cc2Cl)nc1 [Compound I-53]           nM           940
1  CC(=O)N[C@@H](C)/C=C/c1cnc(N2CCc3cc(OCC4CC4)ccc32)s1 [Compound I-59]           nM           950
2  C[C@@H](/C=C/c1cnc(Oc2ccc(OCC3CC3)cc2Cl)s1)NC(=O)CCCN1CCCC1 [Compound I-88]           nM           890

(I) CC(=O)N[C@@H](C)/C=C/c1ccc(Oc2cccc(OC(C)C)c2)nc1 [Compound I-49]
(II) CC(=O)NCC(=O)N[C@@H](C)/C=C/c1cnc(Oc2ccc(OCC3CC3)cc2Cl)s1 [Compound I-78]
(III) CSCCC(=O)N[C@@H](C)/C=C/c1cnc(Oc2ccc(OCC3CC3)cc2Cl)s1 [Compound I-72]
(IV) COc1ccc(Cl)c(Oc2ccc(/C=C/[C@H](C)NC(C)=O)cn2)c1 [Compound I-27]
(V) CC(=O)N[C@@H](C)/C=C/c1cnc(Oc2ccc(NC(C)C)cc2Cl)nc1 [Compound I-55]
# input Returns the items ordered by IC50, from maximum to minimum. Write the labels, ordered according to the request.
# output V, IV, II, III, I
(V: 4500 nM, IV: 1200 nM, II: 550 nM, III: 230 nM, I: 72 nM)
